Target: T1, Rat IL-23R_huFC (rat, UniProt F1LX96 39-369)
T1 sequence: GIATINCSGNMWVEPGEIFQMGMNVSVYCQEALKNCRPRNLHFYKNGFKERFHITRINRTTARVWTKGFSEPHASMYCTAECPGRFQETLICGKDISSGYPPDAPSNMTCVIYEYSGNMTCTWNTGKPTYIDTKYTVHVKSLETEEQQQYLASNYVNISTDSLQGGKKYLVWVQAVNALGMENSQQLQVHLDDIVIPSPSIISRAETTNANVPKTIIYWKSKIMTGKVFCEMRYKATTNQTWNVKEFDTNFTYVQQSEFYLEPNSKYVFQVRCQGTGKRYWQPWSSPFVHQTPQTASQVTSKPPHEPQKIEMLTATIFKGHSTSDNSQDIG
Assay: rat IL-23R competitive binding ELISA
Bridges are numbered along the chain shown (N, C = ends). [ ]: non-standard residue; d: D form. Aib = CC(C)(N)C(=O)O
Reported endpoint: IC50 (nM)
Form entry: value (nM) — number only.

Prompt line: Indicate the recorded IC50 value for this binder: CQTWQCYWLENG (not fully specified; Ac; α-MeLeu at 9; NH2) [Ac-CQTWQCYW-[α-MeLeu]-ENG-NH2]
Response line: 27

Prompt line: Indicate the recorded IC50 value for this binder: Ac-CSTWQCYWSKQSGGS-NH2 (disulfide 1-6; SMILES CC(=O)N[C@H]1CSSC[C@@H](C(=O)N[C@@H](Cc2ccc(O)cc2)C(=O)N[C@@H](Cc2c[nH]c3ccccc23)C(=O)N[C@@H](CO)C(=O)N[C@@H](CCCCN)C(=O)N[C@@H](CCC(N)=O)C(=O)N[C@@H](CO)C(=O)NCC(=O)NCC(=O)N[C@@H](CO)C(N)=O)NC(=O)[C@H](CCC(N)=O)NC(=O)[C@H](Cc2c[nH]c3ccccc23)NC(=O)[C@H]([C@@H](C)O)NC(=O)[C@H](CO)NC1=O) [Ac-CSTWQCYWSKQSGGS-NH2]
Response line: 204

Prompt line: Indicate the recorded IC50 value for this binder: Ac-CQTWQCYW[Aib]ENG-NH2 (disulfide 1-6 (inferred)) [Ac-CQTWQCYW-[Aib]-ENG-NH2]
Response line: 34

Prompt line: Indicate the recorded IC50 value for this binder: Ac-CSTWQCYWLKHGGE-NH2 (disulfide 1-6; SMILES CC(=O)N[C@H]1CSSC[C@@H](C(=O)N[C@@H](Cc2ccc(O)cc2)C(=O)N[C@@H](Cc2c[nH]c3ccccc23)C(=O)N[C@@H](CC(C)C)C(=O)N[C@@H](CCCCN)C(=O)N[C@@H](Cc2c[nH]cn2)C(=O)NCC(=O)NCC(=O)N[C@@H](CCC(=O)O)C(N)=O)NC(=O)[C@H](CCC(N)=O)NC(=O)[C@H](Cc2c[nH]c3ccccc23)NC(=O)[C@H]([C@@H](C)O)NC(=O)[C@H](CO)NC1=O) [Ac-CSTWQCYWLKHGGE-NH2]
Response line: 24
